# credit: paper PMC5382265

biological target: O. volvulus iPGM (Onchocerca volvulus); assay: biochemical; conditions: pIC50 O. volvulus iPGM
Sequence (I6LDA6 whole entry, looked up): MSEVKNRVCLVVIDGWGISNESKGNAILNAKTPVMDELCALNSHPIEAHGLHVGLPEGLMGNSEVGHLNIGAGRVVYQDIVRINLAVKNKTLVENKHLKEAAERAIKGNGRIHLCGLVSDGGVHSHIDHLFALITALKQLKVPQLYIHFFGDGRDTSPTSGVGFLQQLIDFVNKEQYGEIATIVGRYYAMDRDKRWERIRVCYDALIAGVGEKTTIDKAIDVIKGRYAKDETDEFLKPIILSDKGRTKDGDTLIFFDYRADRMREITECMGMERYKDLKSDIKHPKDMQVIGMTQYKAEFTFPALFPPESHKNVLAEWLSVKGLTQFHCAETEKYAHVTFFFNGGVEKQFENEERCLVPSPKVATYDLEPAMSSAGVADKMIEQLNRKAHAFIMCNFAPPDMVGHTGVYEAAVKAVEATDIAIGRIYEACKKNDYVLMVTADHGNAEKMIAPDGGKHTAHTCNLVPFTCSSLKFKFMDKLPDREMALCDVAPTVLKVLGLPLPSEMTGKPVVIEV
Documented IC50 across a set of molecules

>  <SMILES INPUT>
CC(C)C[C@H](NC(=O)[C@H](Cc1ccc(O)cc1)NC(=O)[C@@H]1CSCC(=O)N[C@H](Cc2ccc(O)cc2)C(=O)N[C@@H](CC(=O)O)C(=O)N[C@@H](Cc2ccc(O)cc2)C(=O)N2CCC[C@H]2C(=O)NCC(=O)N[C@@H](CC(=O)O)C(=O)N[C@@H](Cc2ccc(O)cc2)C(=O)N1)C(=O)N[C@@H](Cc1ccc(O)cc1)C(=O)NCC(=O)N[C@H](C(=O)N[C@@H](CO)C(=O)NCC(N)=O)[C@@H](C)O

>  <IC50>
1020 nM

$$$$
>  <SMILES INPUT>
CC(C)C[C@H](NC(=O)[C@H](Cc1ccc(O)cc1)NC(=O)[C@@H]1CSCC(=O)N[C@H](Cc2ccc(O)cc2)C(=O)N[C@@H](CC(=O)O)C(=O)N[C@@H](Cc2ccc(O)cc2)C(=O)N2CCC[C@H]2C(=O)NCC(=O)N[C@@H](CC(=O)O)C(=O)N[C@@H](Cc2ccc(O)cc2)C(=O)N1)C(=O)N[C@@H](Cc1ccc(O)cc1)C(=O)NCC(=O)N[C@H](C(N)=O)[C@@H](C)O

>  <IC50>
2450 nM

$$$$
>  <SMILES INPUT>
CC(C)C[C@H](NC(=O)[C@H](Cc1ccc(O)cc1)NC(=O)[C@@H]1CSCC(=O)N[C@H](Cc2ccc(O)cc2)C(=O)N[C@@H](CC(=O)O)C(=O)N[C@@H](Cc2ccc(O)cc2)C(=O)N2CCC[C@H]2C(=O)NCC(=O)N[C@@H](CC(=O)O)C(=O)N[C@@H](Cc2ccc(O)cc2)C(=O)N1)C(=O)N[C@@H](Cc1ccc(O)cc1)C(=O)NCC(N)=O

>  <IC50>
3890 nM

$$$$
>  <SMILES INPUT>
CC(C)C[C@H](NC(=O)[C@H](Cc1ccc(O)cc1)NC(=O)[C@@H]1CSCC(=O)N[C@H](Cc2ccc(O)cc2)C(=O)N[C@@H](CC(=O)O)C(=O)N[C@@H](Cc2ccc(O)cc2)C(=O)N2CCC[C@H]2C(=O)NCC(=O)N[C@@H](CC(=O)O)C(=O)N[C@@H](Cc2ccc(O)cc2)C(=O)N1)C(=O)N[C@@H](Cc1ccc(O)cc1)C(=O)NCC(=O)N[C@H](C(=O)N[C@@H](CS)C(N)=O)[C@@H](C)O

>  <IC50>
0.209 nM

$$$$

----------
Documented log10 of IC50 across a set of compounds
target: UniProtKB Q4VWF8; assay: biochemical; conditions: pIC50, apparent B. malayi iPGM
Sequence (Q4VWF8 whole entry, looked up): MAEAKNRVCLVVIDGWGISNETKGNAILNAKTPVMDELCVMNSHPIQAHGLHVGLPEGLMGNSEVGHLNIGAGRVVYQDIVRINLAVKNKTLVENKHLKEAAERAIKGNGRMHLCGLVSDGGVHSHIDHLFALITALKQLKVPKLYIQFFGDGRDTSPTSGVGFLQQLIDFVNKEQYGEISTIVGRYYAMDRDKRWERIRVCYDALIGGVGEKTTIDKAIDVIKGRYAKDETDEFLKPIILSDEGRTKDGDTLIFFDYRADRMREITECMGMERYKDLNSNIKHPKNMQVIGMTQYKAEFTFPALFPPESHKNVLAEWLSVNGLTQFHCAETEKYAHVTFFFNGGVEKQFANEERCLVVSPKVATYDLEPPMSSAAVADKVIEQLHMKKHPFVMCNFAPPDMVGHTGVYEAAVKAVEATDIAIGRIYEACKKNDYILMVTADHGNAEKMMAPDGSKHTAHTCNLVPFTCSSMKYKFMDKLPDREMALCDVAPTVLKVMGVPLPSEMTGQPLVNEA
Positions of bridges follow the written chain, without caps; N, C: chain ends. Non-standard residues stand in square brackets, D forms with d. Residues, ends and D or L forms follow the SMILES beside them.
MEASURED METRIC: log10 of IC50 (log10 of the value in nM)

>  <COMPOUND>
C[C@@H](O)[C@H](NC(=O)[C@H](CO)NC(=O)[C@@H]1CSCC(=O)N[C@H](Cc2ccc(O)cc2)C(=O)N2CCC[C@H]2C(=O)N[C@@H](CCC(=O)O)C(=O)N[C@@H](Cc2c[nH]c3ccccc23)C(=O)N2CCC[C@H]2C(=O)N[C@@H](CC(N)=O)C(=O)N1)C(=O)N[C@@H](CS)C(=O)NCC(N)=O [Bm-6] ({CH2CO}-[dY]PEWPNCSTCG-NH2; thioether N-7)

>  <VALUE OBSERVED>
2.84

$$$$
>  <COMPOUND>
CC(C)C[C@@H]1NC(=O)[C@@H](Cc2ccc(O)cc2)NC(=O)CSC[C@@H](C(=O)N[C@@H](CC(N)=O)C(=O)N[C@H](C(=O)N[C@@H](CS)C(=O)NCC(N)=O)[C@@H](C)O)NC(=O)[C@H](CC(N)=O)NC(=O)[C@@H]2CCCN2C(=O)[C@H](Cc2c[nH]c3ccccc23)NC(=O)[C@H](CCC(=O)O)NC1=O [Bm-4] ({CH2CO}-[dY]LEWPNCNTCG-NH2; thioether N-7)

>  <VALUE OBSERVED>
2.76

$$$$
>  <COMPOUND>
CC(C)C[C@@H]1NC(=O)[C@@H](Cc2ccc(O)cc2)NC(=O)CSC[C@@H](C(=O)N[C@@H](CO)C(=O)N[C@H](C(=O)N[C@@H](CS)C(=O)NCC(N)=O)[C@@H](C)O)NC(=O)[C@H](CC(N)=O)NC(=O)[C@@H]2CCCN2C(=O)[C@H](Cc2c[nH]c3ccccc23)NC(=O)[C@H](CC(=O)O)NC1=O [Bm-5] ({CH2CO}-[dY]LDWPNCSTCG-NH2; thioether N-7)

>  <VALUE OBSERVED>
2.84

$$$$
>  <COMPOUND>
CC(C)C[C@H](NC(=O)[C@H](Cc1ccc(O)cc1)NC(=O)[C@@H]1CSCC(=O)N[C@H](Cc2ccc(O)cc2)C(=O)N[C@@H](CC(=O)O)C(=O)N[C@@H](Cc2ccc(O)cc2)C(=O)N2CCC[C@H]2C(=O)NCC(=O)N[C@@H](CC(=O)O)C(=O)N[C@@H](Cc2c[nH]cn2)C(=O)N1)C(=O)N[C@@H](Cc1ccc(O)cc1)C(=O)NCC(=O)N[C@H](C(=O)N[C@@H](CS)C(=O)NCC(N)=O)[C@@H](C)O

>  <VALUE OBSERVED>
1.08

$$$$
>  <COMPOUND>
CC(C)[C@@H]1NC(=O)[C@H](C)NC(=O)[C@@H](Cc2ccc(O)cc2)NC(=O)CSC[C@@H](C(=O)N[C@@H](CCCNC(=N)N)C(=O)N[C@H](C(=O)N[C@@H](CS)C(=O)NCC(N)=O)[C@@H](C)O)NC(=O)[C@H](CC(N)=O)NC(=O)[C@@H]2CCCN2C(=O)[C@H](Cc2c[nH]c3ccccc23)NC1=O [Bm-7] ({CH2CO}-[dY]AVWPNCRTCG-NH2; thioether N-7)

>  <VALUE OBSERVED>
3.72

$$$$
>  <COMPOUND>
CC[C@H](C)[C@@H]1NC(=O)[C@H](CCC(=O)O)NC(=O)[C@@H]2CCCN2C(=O)[C@H](C)NC(=O)[C@H](CC(N)=O)NC(=O)[C@@H]2CCCN2C(=O)[C@H](Cc2c[nH]c3ccccc23)NC(=O)[C@H](CO)NC(=O)[C@@H](Cc2ccc(O)cc2)NC(=O)CSC[C@@H](C(=O)N[C@@H](CS)C(=O)NCC(N)=O)NC(=O)[C@H](CCCCN)NC(=O)[C@H](Cc2c[nH]c3ccccc23)NC1=O [Bm-1] ({CH2CO}-[dY]SWPNAPEIWKCCG-NH2; thioether N-12)

>  <VALUE OBSERVED>
3.11

$$$$

----------
target: UniProt G5EFZ1; assay: PGM enzyme-coupled bioluminescent end point assay (Kinase-Glo Plus); assay type: biochemical; details: pIC50 C. elegans iPGM
Sequence (G5EFZ1 whole entry): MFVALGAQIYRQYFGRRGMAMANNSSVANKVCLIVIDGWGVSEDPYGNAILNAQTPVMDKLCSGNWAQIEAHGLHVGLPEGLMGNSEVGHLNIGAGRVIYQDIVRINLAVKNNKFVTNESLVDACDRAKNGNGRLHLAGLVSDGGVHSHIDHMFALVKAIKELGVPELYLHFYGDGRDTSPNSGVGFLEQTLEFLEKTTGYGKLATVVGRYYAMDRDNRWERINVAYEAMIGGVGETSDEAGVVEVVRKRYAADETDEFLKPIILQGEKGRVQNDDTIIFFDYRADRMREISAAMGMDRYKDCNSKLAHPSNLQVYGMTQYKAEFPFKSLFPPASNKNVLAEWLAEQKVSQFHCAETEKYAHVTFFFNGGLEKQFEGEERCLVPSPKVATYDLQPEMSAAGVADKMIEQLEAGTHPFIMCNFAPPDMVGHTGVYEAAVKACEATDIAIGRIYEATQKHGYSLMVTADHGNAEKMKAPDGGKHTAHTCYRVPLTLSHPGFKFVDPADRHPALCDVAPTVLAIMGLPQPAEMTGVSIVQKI
pIC50: −log10 of the molar value. Positions of bridges follow the written chain, without caps; N, C: chain ends. Non-standard residues stand in square brackets, D forms with d. Residues, ends and D or L forms follow the SMILES beside them.
Documented pIC50 across a set of compounds

>  <COMPOUND>
CC(C)C[C@H](NC(=O)[C@H](Cc1ccc(O)cc1)NC(=O)[C@@H]1CSCC(=O)N[C@H](Cc2ccc(O)cc2)C(=O)N[C@@H](CC(=O)O)C(=O)N[C@@H](Cc2ccc(O)cc2)C(=O)N2CCC[C@H]2C(=O)NCC(=O)N[C@@H](CC(=O)O)C(=O)N[C@@H](Cc2ccc(O)cc2)C(=O)N1)C(=O)N[C@@H](Cc1ccc(O)cc1)C(=O)NCC(N)=O

>  <pIC50>
7.64

$$$$
>  <COMPOUND>
CC(C)C[C@H](NC(=O)[C@H](Cc1ccc(O)cc1)NC(=O)[C@@H]1CSCC(=O)N[C@H](Cc2ccc(O)cc2)C(=O)N[C@@H](CC(=O)O)C(=O)N[C@@H](Cc2ccc(O)cc2)C(=O)N2CCC[C@H]2C(=O)NCC(=O)N[C@@H](CC(=O)O)C(=O)N[C@@H](Cc2ccc(O)cc2)C(=O)N1)C(N)=O [Ce-2e] ({CH2CO}-[dY]DYPGDYCYL-NH2; thioether N-8)

>  <pIC50>
7.16

$$$$
>  <COMPOUND>
NC(=O)[C@H](Cc1ccc(O)cc1)NC(=O)[C@@H]1CSCC(=O)N[C@H](Cc2ccc(O)cc2)C(=O)N[C@@H](CC(=O)O)C(=O)N[C@@H](Cc2ccc(O)cc2)C(=O)N2CCC[C@H]2C(=O)NCC(=O)N[C@@H](CC(=O)O)C(=O)N[C@@H](Cc2ccc(O)cc2)C(=O)N1 [Ce-2f] ({CH2CO}-[dY]DYPGDYCY-NH2; thioether N-8)

>  <pIC50>
4.29

$$$$
>  <COMPOUND>
CC(C)C[C@H](NC(=O)[C@H](Cc1ccc(O)cc1)NC(=O)[C@@H]1CSCC(=O)N[C@H](Cc2ccc(O)cc2)C(=O)N[C@@H](CC(=O)O)C(=O)N[C@@H](Cc2ccc(O)cc2)C(=O)N2CCC[C@H]2C(=O)NCC(=O)N[C@@H](CC(=O)O)C(=O)N[C@@H](Cc2ccc(O)cc2)C(=O)N1)C(=O)N[C@@H](Cc1ccc(O)cc1)C(=O)NCC(=O)N[C@H](C(=O)N[C@@H](CO)C(=O)NCC(N)=O)[C@@H](C)O

>  <pIC50>
8.08

$$$$
>  <COMPOUND>
CC(C)C[C@H](NC(=O)[C@H](Cc1ccc(O)cc1)NC(=O)[C@@H]1CSCC(=O)N[C@H](Cc2ccc(O)cc2)C(=O)N[C@@H](CC(=O)O)C(=O)N[C@@H](Cc2ccc(O)cc2)C(=O)N2CCC[C@H]2C(=O)NCC(=O)N[C@@H](CC(=O)O)C(=O)N[C@@H](Cc2ccc(O)cc2)C(=O)N1)C(=O)N[C@@H](Cc1ccc(O)cc1)C(=O)NCC(=O)N[C@H](C(N)=O)[C@@H](C)O

>  <pIC50>
7.80

$$$$
>  <COMPOUND>
CC(C)C[C@H](NC(=O)[C@H](Cc1ccc(O)cc1)NC(=O)[C@@H]1CSCC(=O)N[C@H](Cc2ccc(O)cc2)C(=O)N[C@@H](CC(=O)O)C(=O)N[C@@H](Cc2ccc(O)cc2)C(=O)N2CCC[C@H]2C(=O)NCC(=O)N[C@@H](CC(=O)O)C(=O)N[C@@H](Cc2ccc(O)cc2)C(=O)N1)C(=O)N[C@@H](Cc1ccc(O)cc1)C(=O)NCC(=O)N[C@H](C(=O)N[C@@H](CS)C(N)=O)[C@@H](C)O

>  <pIC50>
9.76

$$$$
>  <COMPOUND>
CC(C)C[C@H](NC(=O)[C@H](Cc1ccc(O)cc1)NC(=O)[C@@H]1CSCC(=O)N[C@H](Cc2ccc(O)cc2)C(=O)N[C@@H](CC(=O)O)C(=O)N[C@@H](Cc2ccc(O)cc2)C(=O)N2CCC[C@H]2C(=O)NCC(=O)N[C@@H](CC(=O)O)C(=O)N[C@@H](Cc2ccc(O)cc2)C(=O)N1)C(=O)N[C@@H](Cc1ccc(O)cc1)C(=O)NCC(=O)N[C@H](C(=O)N[C@@H](CS)C(=O)NCC(N)=O)[C@@H](C)O

>  <pIC50>
9.60

$$$$
